test: Stability in human plasma assessed as parent compound remaining measured after 4 hrs in presence of NADPH by LC-MS/MS analysis; type: ADME, cell-free; settings: read-out: Stability
measuredParameter: remaining at 4 h (%)

[I] Cc1c(C#CCNC(=O)OC(C)(C)C)cccc1N1CCC(=O)NC1=O
[II] Nc1cccc2c1CN(C1CCC(=O)NC1=O)C2=O (stereo not given) [LENALIDOMIDE]
# return whichever of I and II has the smaller remaining at 4 h State your choice using its label.
II
(II: 62%, I: 97%)

====

molecular target: Protein cereblon/Zinc finger protein Aiolos (Homo sapiens) (UniProt Q96SW2+Q9UKT9); assay: Protac activity at CRBN/IKZF3 in human MV4-11 cells assessed as induction of IKZF3 degradation at 1 to 10 uM measured after 24 hrs by Western blot analysis; type: cell-based; conditions: dose 1-10 µM
Sequence (Q96SW2 whole entry, looked up): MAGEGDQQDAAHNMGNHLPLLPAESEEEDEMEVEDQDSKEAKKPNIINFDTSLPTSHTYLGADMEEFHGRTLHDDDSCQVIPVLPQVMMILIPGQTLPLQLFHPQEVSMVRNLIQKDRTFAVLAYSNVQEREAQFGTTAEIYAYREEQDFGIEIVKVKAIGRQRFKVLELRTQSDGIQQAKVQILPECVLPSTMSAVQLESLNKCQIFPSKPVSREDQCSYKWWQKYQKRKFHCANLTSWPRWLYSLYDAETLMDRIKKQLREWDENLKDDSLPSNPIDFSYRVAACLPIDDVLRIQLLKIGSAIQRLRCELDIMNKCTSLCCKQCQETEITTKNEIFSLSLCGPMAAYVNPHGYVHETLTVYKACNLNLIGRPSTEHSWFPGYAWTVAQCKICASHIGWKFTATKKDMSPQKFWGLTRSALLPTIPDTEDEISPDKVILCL
Sequence (Q9UKT9 whole entry, looked up): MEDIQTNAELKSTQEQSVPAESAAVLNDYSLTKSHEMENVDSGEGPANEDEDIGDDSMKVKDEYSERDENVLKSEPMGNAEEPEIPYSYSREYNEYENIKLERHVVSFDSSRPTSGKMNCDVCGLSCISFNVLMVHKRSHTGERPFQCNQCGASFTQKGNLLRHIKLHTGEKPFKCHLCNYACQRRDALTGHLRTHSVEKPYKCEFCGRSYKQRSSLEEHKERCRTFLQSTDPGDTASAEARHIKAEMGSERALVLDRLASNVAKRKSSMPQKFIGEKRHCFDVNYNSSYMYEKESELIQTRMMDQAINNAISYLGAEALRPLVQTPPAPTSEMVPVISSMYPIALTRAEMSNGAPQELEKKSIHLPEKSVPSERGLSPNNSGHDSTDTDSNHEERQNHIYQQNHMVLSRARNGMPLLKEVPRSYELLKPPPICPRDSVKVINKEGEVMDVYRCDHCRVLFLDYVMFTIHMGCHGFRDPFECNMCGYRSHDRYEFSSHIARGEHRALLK
Activity calls are given as the source filed them. The rule behind the calls is not given here.
measuredParameter: Activity

inputsmiles=CCNC(=O)COc1cccc(N2CCC(=O)NC2=O)c1C valuemeasured=inactive
inputsmiles=CC(=O)NCCC#Cc1cccc(N2CCC(=O)NC2=O)c1C valuemeasured=inactive
inputsmiles=Cc1c(OCC(=O)N2CCCCC2)cccc1N1CCC(=O)NC1=O valuemeasured=inactive
inputsmiles=Cc1c(C#CCNC(=O)OC(C)(C)C)cccc1N1CCC(=O)NC1=O valuemeasured=inactive
